For each record, write down the corresponding EC50.
- target_or_system: human CB1R (Homo sapiens)
- Construct: host or cells: CHO cells
- Sequence (P21554 whole entry): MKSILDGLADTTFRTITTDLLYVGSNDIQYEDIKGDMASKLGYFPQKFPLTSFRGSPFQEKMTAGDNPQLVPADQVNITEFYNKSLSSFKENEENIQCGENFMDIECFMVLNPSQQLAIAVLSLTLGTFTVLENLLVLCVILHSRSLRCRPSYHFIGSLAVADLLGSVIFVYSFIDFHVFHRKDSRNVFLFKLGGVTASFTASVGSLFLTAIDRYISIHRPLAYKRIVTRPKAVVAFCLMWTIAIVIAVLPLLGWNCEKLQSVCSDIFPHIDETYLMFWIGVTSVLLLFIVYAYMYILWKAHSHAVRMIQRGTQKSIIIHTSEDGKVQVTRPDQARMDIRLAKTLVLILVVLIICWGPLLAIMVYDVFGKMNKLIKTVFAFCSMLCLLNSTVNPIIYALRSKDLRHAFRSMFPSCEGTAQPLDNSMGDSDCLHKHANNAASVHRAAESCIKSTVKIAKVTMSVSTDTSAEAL
- procedure_details: CB1R mediated modulation of cAMP synthesis
- Assay type: cell-based

* CO[C@@H](C)C(C)(C)c1cc(NC(=O)C(C)(C)S(=O)(=O)CC2CCOCC2)no1 | > 50 µM
* CC(C)(COCCO)c1cc(NC(=O)C(C)(C)S(=O)(=O)C2CCOCC2)no1 | > 50 µM
* CC(C)(C(=O)Nc1cc(C2(COC3CCCCO3)CCCCC2)no1)S(=O)(=O)C1CCOCC1 (centres unmarked) | > 50 µM
* C[C@H](OC1CCCOC1)C(C)(C)c1cc(NC(=O)C(C)(C)S(=O)(=O)C2CCOCC2)on1 (some centres unmarked) | > 50 µM
* CC[C@@H](O)C(C)(C)c1cc(NC(=O)C(C)(C)S(=O)(=O)C2CCOCC2)on1 | > 50 µM

Give one value of EC50 per listed compound.
1. CC(C)(C(=O)Nc1cc(C2(COC3CCCCO3)CCCC2)no1)S(=O)(=O)c1ccc(F)cc1 (centres unmarked)
2. COCCOCC(C)(C)c1cc(NC(=O)C(C)(C)S(=O)(=O)C[C@H]2CCOC2)on1
3. CCC(O)C(C)(C)c1cc(NC(=O)C(C)(C)S(=O)(=O)C2CCOCC2)on1 (centres unmarked)
4. CC(O)C(C)(C)c1cc(NC(=O)C(C)(C)S(=O)(=O)CCCC(F)(F)F)on1 (centres unmarked)
5. CO[C@@H](C)C(C)(C)c1cc(NC(=O)C(C)(C)S(=O)(=O)C2CCOCC2)no1
6. C[C@@H](O)C(C)(C)c1cc(NC(=O)C(C)(C)S(=O)(=O)C2CCOCC2)on1
7. COCCOCC1(c2cc(NC(=O)C(C)(C)S(=O)(=O)C3CCOCC3)on2)CCCCC1
8. CCn1nc(NC(=O)C(C)(C)S(=O)(=O)C2CCOCC2)nc1-c1ccc(O)cc1

Reply:
["> 50 µM", "> 50 µM", "> 50 µM", "> 20 µM", "> 50 µM", "> 50 µM", "> 50 µM", "> 20 µM"]

Give one value of EC50 per listed compound.
1. COCCOCC(C)(C)c1cc(NC(=O)C(C)(C)S(=O)(=O)C2CCOCC2)no1
2. COCCOCC(C)(C)c1cc(NC(=O)C(C)(C)S(=O)(=O)C2CCN(S(C)(=O)=O)CC2)on1
3. COCCOCC(C)(C)c1cc(NC(=O)C(C)(C)S(=O)(=O)C2CCOCC2)on1

Reply:
1: > 50 µM; 2: > 50 µM; 3: > 50 µM
